# Test system: mucous membrane of nasal passages, formalin-induced acute rhinosinusitis
# assay remarks: Acute rhinosinusitis rat model (induced by intranasal 7.5% formalin solution)
# Format: in vivo, Wistar rats
# condition parameters: rats, tested compounds 27 mg/kg for 7 days after induction; M ± m
result type: The number of caliciform cells within 1 mm of the mucous membrane of the nasal septum

# smiles record, value reported
rows = [
    ("O=C1CCCC(=O)N1CCc1ncc[nH]1", 34.5),
    ("O=C1CCCC(=O)N1CCc1cnc[nH]1", 31.2),
    ("CC1(C)CC(=O)N(CCc2cnc[nH]2)C(=O)C1", 35.8),
    ("O=C1CCCC(=O)N1CCc1nccs1", 36.5),
    ("O=C1CCCC(=O)N1CCc1nc2ccccc2[nH]1", 37.6),
]

----------
# System: Coxsackie A2-virus (strain HCXV A2)
# assay remarks: Antiviral activity against Coxsackie virus in vivo (mortality of infected mice)
# Design: species or system white mice
# condition parameters: Mus musculus, po, 360 h; mice, 10LD50 HCXV A2 i.m.; 30 mg/kg orally once daily for 7 days from 24 h after infection; 15 days monitoring; read-out: Total mortality rate, %
Threshold-based label: mortality at 30 mg/kg under 40% gives Condition met, mortality at 30 mg/kg not under 40% gives Condition not met.

# compound, target or system, category
measured = [
    ("O=C1CCCC(=O)N1CCc1cn[nH]n1 [Compound 35]", "Coxsackie A2-virus (strain HCXV A2)", "Condition not met"),
    ("CC1CC(=O)N(C(Cc2cnc[nH]2)C(=O)O)C(=O)C1 (stereo not drawn) [Compound 71]", "Coxsackie A2-virus (strain HCXV A2)", "Condition met"),
    ("NC1CCC(=O)N(CCc2cnc[nH]2)C1=O (stereo not drawn) [Compound 67]", "Coxsackie A2-virus (strain HCXV A2)", "Condition met"),
    ("O=C1CCC(O)C(=O)N1CCc1cnc[nH]1 (stereo not drawn) [Compound 29]", "Coxsackie A2-virus (strain HCXV A2)", "Condition met"),
    ("CC(Cc1cnc[nH]1)N1C(=O)CCCC1=O (stereo not drawn) [Compound 32]", "Coxsackie A2-virus (strain HCXV A2)", "Condition not met"),
    ("CC1CC(=O)N(CCc2cnc[nH]2)C(=O)C1 [Compound 2]", "Coxsackie A2-virus (strain HCXV A2)", "Condition not met"),
    ("O=C1CCCC(=O)N1CCC1COCCN1 (stereo not drawn) [Compound 90]", "Coxsackie A2-virus (strain HCXV A2)", "Condition met"),
    ("O=C1CCCC(=O)N1CCc1ccccn1 [Compound 13]", "Coxsackie A2-virus (strain HCXV A2)", "Condition not met"),
    ("O=C(O)C(Cc1ccoc1)N1C(=O)CCCC1=O (stereo not drawn) [Compound 44]", "Coxsackie A2-virus (strain HCXV A2)", "Condition met"),
    ("O=C1CCCC(=O)N1CCc1nnn[nH]1 [Compound 36]", "Coxsackie A2-virus (strain HCXV A2)", "Condition not met"),
    ("O=C1CCCC(=O)N1CCN1CCCC1 [Compound 23]", "Coxsackie A2-virus (strain HCXV A2)", "Condition not met"),
    ("NC1CCC(=O)N(C(Cc2c[nH]cn2)C(=O)O)C1=O (stereo not drawn) [Compound 75]", "Coxsackie A2-virus (strain HCXV A2)", "Condition met"),
    ("O=C1CCCC(=O)N1CCn1ccnc1 [Compound 30]", "Coxsackie A2-virus (strain HCXV A2)", "Condition not met"),
    ("O=C1CCCC(=O)N1CCC1CNCCO1 (stereo not drawn) [Compound 89]", "Coxsackie A2-virus (strain HCXV A2)", "Condition not met"),
]
